Test system: SW982
Assay Text: Inhibition of PGE2 release from bradykinin-stimulated human SW982 cells by fluorescence assay
Type: functional, cell-based
Observation Type: pIC50
# log scale: pIC50 equals minus log10 of the concentration in mol/L

[ask] Give recorded pIC50. COC1=C(C)C(=O)c2ccc(O[C@@H]3O[C@@H](C)[C@H](O)[C@@H](O)[C@H]3O)c(NNC(C)=O)c2C1=O
[reply] 6.00

---
[ask] Give recorded pIC50. CS(=O)(=O)c1ccc(-n2nc(C(F)(F)F)cc2-c2ccc(F)cc2)cc1
[reply] 7.48
